Tested on: Saccharomyces cerevisiae
Assay: protein stability index of tFT-peptide fusion (C-terminal peptide) (PSI (0-1 scale)); higher = more stable (slower turnover)
Conditions: genetic background: wild type; temperature: 30 C
// reported protein stability index per item
API doc: respond with a numeric literal and nothing else, no unit.

Item `FSKDDFEVTPNS` has what recorded protein stability index?
0.819

----------
Listed here: items and their measured protein stability index.
System: Saccharomyces cerevisiae;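 further: PSI is a weighted mean of sequencing reads over stability bins, variants kept only with over 10 reads, mCherry proximal and sfGFP distal, peptide attached via GGGS linker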
Test: protein stability index of tFT-peptide fusion (C-terminal peptide) (PSI (0-1 scale)); higher = more stable (slower turnover)
Conditions: genetic background: wild type; temperature: 30 C

Below: 3 sequences and their reported protein stability index.
- sequence: "GPPDLSSSRVLL"
  protein stability index: 0.718
- sequence: "RGMVPREKHQNS"
  protein stability index: 0.683
- sequence: "WGGGGGRGGMGG"
  protein stability index: 0.693

Turning now to a further record.
Quick check: protein stability index of `PTPPRPGPIITF` ?
0.699
